test: yeast display, Sf9 membrane polyspecificity reagent, FACS + sequencing; frameworks hold sequencing errors
ENDPOINT_NAME: polyreactivity (PSR sort gate)

* QVQLVESGGGLVQAGGSLRLSCAASGSIFKSYAMGWYRHAPWKERELVASISSRGSSTNYADSVKGRFTISRDNAKITVYLQMNSLKPEDTEGYYCAAEVYRGKYWSTYRGGDYWGQGTQVTVSS | high polyreactivity
* QVQLVESGGGLVQAGGSLRLSCAASGITFKGNAMGWYRQAPGKERELVAAIRWRAGRTYYADSVKGRFTISRDNAKNTVYLQMNSLKPEDTAVYYCAAVGRYAYRRGSFLAYKSNYDYWGQGTQVTVSS | high polyreactivity

* * *

experiment: yeast display, Sf9 membrane polyspecificity reagent, FACS + sequencing; frameworks hold sequencing errors
ENDPOINT_NAME: polyreactivity (PSR sort gate)

Below: 4 sequences and their reported polyreactivity (PSR sort gate).
• QVQLVESSGGLVQAGCSLRLSCAASGFTFGYYAMGWYRQAPGKERELVAAISRSGGRTYYADSVKGRFTISRDKAKNTVYLQMNSLNPEDTAVYYCAAWYVPGYLVDSDYWGQGTQVTVSS = high polyreactivity
• QVQLVESGGGLVQAGGSLRVSCAASGFTFGYYGMGWYRQAPGKERELVAAISWSGGSTYYADSVKGRFTISRDNAKYTVYLQMNSLKPEVTAVYYCNADYAGFYQRRYIEDDYWGQGTQVTVSS = low polyreactivity
• QVQLVESGGGLVQAGGSLRLSCAASGRIISSYAMVWYRQAPGKETELVAAISWDGGSTYYADSVKGRFTISRDNANNTVYLQMNSLKPEDTAVYYCATDATRPWYDYWGQGTQVTVSS = low polyreactivity
• QVQLVESRGRLVQAGGSLRLSCAASGYTFNHNAMGWYRPAPGKETELVAVITPRAGSTYYADSVKGRFTISRDNAKNTVYLQKNSLKPEDSAVYYCNADGFVRRTLRYDYWVQGTQVTVSS = high polyreactivity

Which polyreactivity (PSR sort gate) is reported for this sequence? QVQLVESGGGLVQAGGSLRLSCAASGRIFDGNTMGWYRQAPGKERELVAAISGGGSTDYADSVKGRFTISRDNAKNTVYLQMNSLKPEDTAVYYCAATTGPVPLKGDYWGQGTQVTVSS
low polyreactivity

Bench note: what polyreactivity (PSR sort gate) did QVQLVESGGGLVQAGGSLRLSCAASGRIFSGYAMGWYRQAPGKERELVAAITSVGSTNYADSVKGRFTISRDNAKNTVYLQMNSLKPEDTAVYYCARYSYRGTNVRYDYWGQGTQVTVSS show?
high polyreactivity

Given the entry QVQLVESGGGLVQAGGSLRLSCAASGITFYEYAMGWYRQAPGKERELVASISGSGGSTFYADSVKGRFTISRDNAKNTVYLQMNSLKPEDTAVYYCAAYKEPYYEEYGYWGQGTQVTVSS , report its measured polyreactivity (PSR sort gate).
low polyreactivity

Entry QVQLQESGGGLVKAGGSLRLSCAASGNISNHNDMGWYRQAPGKEREFVAGITAGGITNYADSVKGRFTISRDNAKNTGYLQMNSLKPEDTAVYYCAAYPDYAKSYGYWGQGTQATVSS has what polyreactivity (PSR sort gate)?
low polyreactivity

* * *

experiment: yeast display, Sf9 membrane polyspecificity reagent, FACS + sequencing; frameworks hold sequencing errors
ENDPOINT_NAME: polyreactivity (PSR sort gate)

Here is how some sequences turned out for polyreactivity (PSR sort gate).
- QVQLVESGGGLLQAGGSLRISCAASGRIFGRYAMGWYRQAPGKERELVASISRGGSTNYADSVKGRFTISRDNAKNTVYLQMNSLKPEDTAVYYCAADLNAYPQRAYDYWGQGTQVTVSS: low polyreactivity
- QVQLVESGGGLVQAGGSLRLSCAASGRIFNIYAMGWYRQAPGKERELVAAISVSGTRTYYADSVKGRFTISRDNAKNTVYLQMNSLKPEDTAVYYCAADSYGGDWTEHMYYWGQGTQVTVSS: low polyreactivity
- QVQLVESGGGLVQAGGSLRLSCAASGYTFGFYAMGWYRQAPGKERELVAAISSSGVSTSYADSVKGRFTISRDNAKNTVYLHMNSLKPEDNAVYYCNAPSYYYAYDYWGQGTQVTVSS: high polyreactivity
- QVQLVESGGGLVQAGGSLRLSSAASGSIFAYYAMGWSRQAPGKEWELVAAITSGGNTKYADSVKGRFTISRDNAKNTVYLQMNCLKPEDTAVYYCASYRTRALWGQGYGYWGHGTQVTVSS: high polyreactivity

Item IIQAGGSLRLCCAASGRTISVYAMGWYTQAAGKERELIADITSGGSTNYADSVKGRFTISRDNAKNTVYLQRNSLKPEDTAVYYCVAERQIRSFWSSRTYVFGYWGQGTQVTVSS has what recorded polyreactivity (PSR sort gate)?
low polyreactivity

* * *

experiment: yeast display, Sf9 membrane polyspecificity reagent, FACS + sequencing; frameworks hold sequencing errors
ENDPOINT_NAME: polyreactivity (PSR sort gate)

Here is how some sequences turned out for polyreactivity (PSR sort gate).
- QVQLVESGGGLVQAGGRHRLICAATGITYKSNPMGWYIQAPGTETELVAAIARRASSTYYADSVKGRFTISRDNAKNTVYLHMNSLNPEDTAVYYCNAVLPVYRTNLDYWGQGTQVTVSS: high polyreactivity
- QVQLVESGGGLVQAGGSLRLSCAASGRTFKYYAMGWYRPAPGKERELVAAISYNGGSTFYADSVKGRFTISRDNAKNTVYLQMNSLKPEDTAVYYCAAGPRGTGKYYWGQGTQVTVSS: high polyreactivity
- QVQLVESGGGLVQAGGSLRLSCAASGLKFAHYAMGWYRQAPGKERELVAAISRSGGRTRYADSVKGRFTISRDQAKNTVYLQMNSLKAEDTAVYYCAAVGSVNYDADFDYWGQGTQVTVSS: high polyreactivity
- QVQLVESGGGLVQAGGSLRLSCAASGSISVANAMGWYRQAPGKERELVAAITDSGDDTYYADSVKGRFTISRDTAKNTVYLQMNSLKPEDTAVYYCAVEAWSVPPYDYWGQGTQVTVSS: low polyreactivity

For the sequence QVQLVESVGGLVQAGGSLRLSCAASGSIFWWYAMGLARQAPGKERELVAAISTRDGNTYYADSVKGRFTISRDNANNTVYLQMNSLKPEDTAVYYCAADYFRYYPYDYWGQGTQVTVSS , what polyreactivity (PSR sort gate) is on record?
low polyreactivity

* * *

experiment: yeast display, Sf9 membrane polyspecificity reagent, FACS + sequencing; frameworks hold sequencing errors
ENDPOINT_NAME: polyreactivity (PSR sort gate)

Worked set:
• QVQLVESGGGLVQAGGSLRLSCAASGRIFPVYTMGWYRQAPGKERELVAAITSSGGSTYYADSVKGRFTISRDNAKNTVYLQMNSLKPEDTAVYYCAKRAGWAYYYWGQGTQVTVSS = high polyreactivity
• QVQLQESGGGLVQAGGSLLSCAASGTISYYREMGCYRQAPGKERELVAGIGVGTITYYADSVKGRFTISRDNAKNTVYLQLNSLKPEDNAVYYCAAHIDGNDSHAYWGQGTQVTVSS = low polyreactivity
• QVQLVESGGGLVQAGGSLRLSCAASGFTLYSYAMGWYRQAPGKERELVARISRSGGRTYYADSVKGRFTISRDNAKNTVYLQMNSLKPEDTAVYYGNARSLYYSYDYWGQGTQVTVSS = high polyreactivity
• QVQLVESGGGLVQAGGSLRLSCAASGITLNRNAMGWYRQAPGKERELVAAISSGGNTYYADSVKGRFSISRDNAKNTVYLQMNSLKPEDTEVYYCAARQVQAPRSIGFYFWGQGTQVTVSS = high polyreactivity
• QVQLVESGGGLVQAGGSLRLSCAASGSIFWLYAMGWYRQAPGKERELVAAITRRGGSTYYADSVKGRFTISRDNAKNTVYLQMNSLKPEDTAVYYCNRLYYSGSGASLDYWGQGTQVTVSS = high polyreactivity
• QVQLVESGGGLVQAGGSLRLSCAASGYFDLNAMGWYRQAPGKERELVAAITDGGSTNYADSVKGRFTISRDNAKNTVYLQMNSLKPEDTAVYYCAADRGHTILHGGYWGQGTQVTVSS = low polyreactivity
• QVQLVESGGGLVQAGGSLRLSCAASGRIFQYNPMGWYIQAPGKERELVADITWIGGSTYADSVKGRFTISRDTAKNTVYLQMNSLKPEDTAVYYCNARYIYRFDYWGQGSQVTVSS = low polyreactivity
• QVQLVESGGGLVQAGGSLRLSCAASGRIFWFNAMGWYRQAPGKERELVAAISGGSTNYADSVKGRFTISRDNAKNTVYLQMNSLKPEDTAVYYCAARYLRRYNWGQGTQVTVSS = high polyreactivity

Next sequence, please.
Dear colleague, I am looking for the recorded polyreactivity (PSR sort gate) of the following sequence: QVQLVESGGCLVQAGGSLRLSCAASGFTFRWYTMGWYRQAPGKERELVAAITGSGCTTYYADSVKGRFTISRDYAKNSVYLQMNSLKPVDTAVYYCAVVTGSFRTRYTYYYLGQGTQVTVSS
high polyreactivity
